Target: T1, GIP receptor
T1 sequence (P48546 whole entry, species assumed, looked up): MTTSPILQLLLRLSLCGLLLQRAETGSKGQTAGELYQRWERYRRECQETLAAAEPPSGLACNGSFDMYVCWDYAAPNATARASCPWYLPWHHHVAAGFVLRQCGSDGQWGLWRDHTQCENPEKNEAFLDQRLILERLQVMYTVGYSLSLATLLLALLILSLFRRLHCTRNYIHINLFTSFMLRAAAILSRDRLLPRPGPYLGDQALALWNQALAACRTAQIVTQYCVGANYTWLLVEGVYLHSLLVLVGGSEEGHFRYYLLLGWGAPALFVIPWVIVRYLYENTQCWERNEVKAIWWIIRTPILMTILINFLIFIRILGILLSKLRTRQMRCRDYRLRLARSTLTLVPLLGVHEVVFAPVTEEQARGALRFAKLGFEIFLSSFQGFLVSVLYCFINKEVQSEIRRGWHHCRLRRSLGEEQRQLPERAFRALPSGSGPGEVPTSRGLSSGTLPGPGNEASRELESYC
Experiment: cell-based or functional assay
Square brackets hold non-standard residues; d marks the D form. Primed or numbered codes have the meaning given here. Ends that are not written are not given here. 40K‑TE PEG = 40 kDa PEG covalently bound via thioether, formed by reaction of the free thiol of the peptide (Cys side chain) with an iodoacetic-functionalized PEG; 40K‑TE PEG″ = 40 kDa PEG bound to Cys via thioether made from an iodoacetyl-functionalised PEG; Aib = CC(C)(N)C(=O)O
reported_endpoint: EC50 (nM) at GIP receptor

| binder | reported_endpoint | scale_unit | value_reported |
| --- | --- | --- | --- |
| H[Aib]QGTFTSDYSKYLDERRA[Aib]EFVC(40K‑TE PEG″)WLLDT-NH2 [peptide of SEQ ID NO: 14] | EC50 (nM) at GIP receptor | nM | 33.7 |
| H[Aib]QGTFTSDYSKYLDEKRA[Aib]EFVC(40K‑TE PEG)WLMDT-NH2 [peptide of SEQ ID NO: 15] | EC50 (nM) at GIP receptor | nM | 316 |
| H[Aib]QGTFTSDYSKYLDERRA[Aib]EFVC(40K‑TE PEG″)WLLDGGPSSGAPPPS-NH2 [peptide of SEQ ID NO: 35] | EC50 (nM) at GIP receptor | nM | 16.1 |
